Attribution: the RNAGym collection of RNA variant scans (doi:10.7554/elife.80360)

B1: CPEB3 Ribozyme (parent)
chain: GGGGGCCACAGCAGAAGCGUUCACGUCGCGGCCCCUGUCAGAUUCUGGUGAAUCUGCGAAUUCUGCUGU

Variants of: B1
method-summary: self-cleavage, relative activity (ratio to wild type); higher = more cleavage; co-transcriptional
So basically every entry gets a class from its self-cleavage, ranges being low: < 0.1; moderate: ≥ 0.1 and < 0.4; high: ≥ 0.4

State the class of the variant shown: G25C C57A
moderate

State the class of the variant shown: U21C C35G
moderate

State the class of the variant shown: C32A G41U
moderate

State the class of the variant shown: C18G G48A
moderate

State the class of the variant shown: G2C A59C
low

State the class of the variant shown: G1A G3C
low

State the class of the variant shown: U21G U43C
high

State the class of the variant shown: A8C A15C
high

State the class of the variant shown: C12G C29A
moderate

State the class of the variant shown: G47U U53G
high

State the class of the variant shown: G30U U38G
moderate
